# maps each entry to its Kd
# experimental-target: T1, extracellular domain of human BCMA (human, UniProt Q02223 1-54)
# T1 construct: amine-linked to Octet AR2G tips; also called hsBCMA; BCMA (human)
# T1 sequence: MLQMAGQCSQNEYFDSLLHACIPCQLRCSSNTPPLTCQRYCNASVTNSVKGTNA
# test-summary: Octet BLI; Fab 200 nM
Write the value in nM as a bare number.

Observe how each entry below is paired with its result.
binder	endpoint-unit	Kd
AB200-R1H26-R2Vk8 (Fab, V domains shown) VH: QVQLVQSGAEVKKPGSSVKVSCKASGGSFSNYWMHWVRQAPGQGLEWMGATYRIHSDTFYNQKFKGRVTITADKSTSTAYMELSSLRSEDTAVYYCARGAIYHGYDVLDNWGQGTLVTVSS VL: DIQMTQSPSSLSASVGDRVTITCRASQSISSYINWYQQKPGKAPKLLIYATSNLQIGVPSRFSGSGSGTDFTLTISSLQPEDFATYYCQQFRKLPWSFGQGTKLEIKR	nM	1.69
AB200-R1H26-R2Vk11 (Fab, V domains shown) VH: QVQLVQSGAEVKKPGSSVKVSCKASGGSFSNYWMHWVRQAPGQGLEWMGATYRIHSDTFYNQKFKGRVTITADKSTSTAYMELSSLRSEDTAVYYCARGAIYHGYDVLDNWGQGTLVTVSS VL: DIQMTQSPSSLSASVGDRVTITCRASQSISSYLNWYQQKPGKAPKLLIYAASSLQSGVPSRFSGSGSGTDFTLTISSLQPEDFATYYCQQFRRLPWTFGQGTKLEIKR	nM	1.55
AB200-R1H26-R2Vk34 (Fab, V domains shown) VH: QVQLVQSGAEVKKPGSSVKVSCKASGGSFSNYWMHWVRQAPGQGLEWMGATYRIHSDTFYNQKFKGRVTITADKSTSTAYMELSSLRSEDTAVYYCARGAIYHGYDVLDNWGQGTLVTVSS VL: DIQMTQSPSSLSASVGDRVTITCRASQSISSYINWYQQKPGKAPKLLIYATSNLQSGVPSRFSGSGSGTDFTLTISSLQPEDFATYYCQQYRRLPWSFGQGTKLEIKR	nM	1.55
AB200-R1H26-R2Vk40 (Fab, V domains shown) VH: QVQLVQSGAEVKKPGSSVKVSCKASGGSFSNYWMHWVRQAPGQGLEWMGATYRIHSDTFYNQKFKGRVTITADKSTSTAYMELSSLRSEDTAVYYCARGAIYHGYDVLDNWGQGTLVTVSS VL: DIQMTQSPSSLSASVGDRVTITCRASQSISSYINWYQQKPGKAPKLLIYATSNIQSGVPSRFSGSGSGTDFTLTISSLQPEDFATYYCQQYRRIPWTFGQGTKLEIKR	nM	2.34

As a next step, examine the binder that follows.
Which Kd is reported for this binder? AB200-R1H26-R2Vk41 (Fab, V domains shown) VH: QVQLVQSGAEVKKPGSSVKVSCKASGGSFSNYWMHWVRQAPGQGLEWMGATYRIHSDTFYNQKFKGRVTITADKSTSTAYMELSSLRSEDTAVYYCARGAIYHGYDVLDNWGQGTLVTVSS VL: DIQMTQSPSSLSASVGDRVTITCRASQSISSYINWYQQKPGKAPKLLIYATSNIQSGVPSRFSGSGSGTDFTLTISSLQPEDFATYYCQQFRRLPWTFGQGTKLEIKR
1.87
